# experimentalSystem: Rap guanine nucleotide exchange factor 3 (Homo sapiens) (UniProt O95398)
# Sequence (O95398 whole entry, looked up): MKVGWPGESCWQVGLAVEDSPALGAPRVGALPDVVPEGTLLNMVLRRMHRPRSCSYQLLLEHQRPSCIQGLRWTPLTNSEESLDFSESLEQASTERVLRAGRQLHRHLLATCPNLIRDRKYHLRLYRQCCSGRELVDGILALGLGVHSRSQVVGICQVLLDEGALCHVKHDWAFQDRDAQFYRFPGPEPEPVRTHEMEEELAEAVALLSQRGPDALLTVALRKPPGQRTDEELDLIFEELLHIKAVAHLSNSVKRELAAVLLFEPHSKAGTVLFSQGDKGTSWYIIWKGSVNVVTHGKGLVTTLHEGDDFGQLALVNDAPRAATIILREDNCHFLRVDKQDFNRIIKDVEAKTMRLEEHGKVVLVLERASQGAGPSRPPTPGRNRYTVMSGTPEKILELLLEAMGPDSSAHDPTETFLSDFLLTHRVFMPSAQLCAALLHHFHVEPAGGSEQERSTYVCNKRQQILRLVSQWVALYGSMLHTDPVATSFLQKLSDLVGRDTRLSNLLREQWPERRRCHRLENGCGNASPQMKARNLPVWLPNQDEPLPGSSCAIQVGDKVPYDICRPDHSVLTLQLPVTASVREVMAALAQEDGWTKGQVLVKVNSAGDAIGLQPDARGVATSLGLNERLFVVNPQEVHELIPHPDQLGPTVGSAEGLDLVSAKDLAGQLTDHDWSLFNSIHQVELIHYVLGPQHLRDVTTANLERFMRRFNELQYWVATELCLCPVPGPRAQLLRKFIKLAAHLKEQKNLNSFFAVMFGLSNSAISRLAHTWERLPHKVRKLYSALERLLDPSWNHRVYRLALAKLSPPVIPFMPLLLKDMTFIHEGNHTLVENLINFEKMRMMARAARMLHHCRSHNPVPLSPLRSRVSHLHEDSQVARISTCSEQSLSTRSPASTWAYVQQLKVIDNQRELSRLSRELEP
# testMethodNotes: Validation qHTS for agonist of cAMP-regulated guanine nucleotide exchange factor 3 (EPAC1); note: % is set by controls: 0 for no effect and ±100 for the full control effect; nearly all actives have a fitted effect of over 70% in size
# testParameters: EPAC1 Rap1b BODIPY-GDP exchange, fluorescence; stronger effect = higher value, percent of cAMP control response
In all, about 16,000 compounds went through this assay and about 160 (1%) were called active. Roughly 8% stayed inconclusive and do not appear here. The sample holds actives, similar compounds and a random draw of the others, so the mix is not that of the screen.
quantityKind: max response (%)
// note: answer is a bare numeric in %

Below, 3 compounds whose answers are already recorded.
CCC1CN(CCNC(=O)c2ccsc2)Cc2cc(OC)ccc2O1 (centres undefined): 4.39
Cc1cc(-c2ccnc(-n3ncc(C(=O)NC(C)(C)CO)c3C3CC3)n2)c(C)s1: 5.17
CCC1CN(CCNC(=O)c2cccnc2C)Cc2cc(OC)ccc2O1 (centres undefined): 1.97

*Q* # return recorded max response for entry `COCCn1c(=O)c(-c2cc(F)cc(F)c2)nc2cncnc21`
*A* -6.52

*Q* Look up and report measured max response for this entry: `c1ccc2nc(C3=NCCN3)cnc2c1`
*A* 0.273

*Q* Quote max response reported for `CN(C)C(=O)[C@@H]1C[C@@H](Sc2nc3ccccc3[nH]2)CN1Cc1ccc(Cl)cc1` please.
*A* 0.834

*Q* Name the recorded max response of the item `Oc1ccc(Cl)c2c1CCC2` in your answer.
*A* -17.9

*Q* Give max response for the following compound: `CC1(C)[C@H](O[C@H]2O[C@H](C(=O)O)[C@@H](O)[C@H](O)[C@H]2O[C@@H]2O[C@H](C(=O)O)[C@@H](O)[C@H](O)[C@H]2O)CC[C@@]2(C)[C@H]1CC[C@]1(C)[C@H]2C(=O)C=C2[C@H]3C[C@@](C)(C(=O)O)CC[C@]3(C)CC[C@]21C`
*A* 5.45
